# Test system: NCI-H522 lung
# test-description: NCI tumour cell line growth inhibition, 48 h
Where a SMILES comes first, the peptide text is derived from it. [ ]: non-standard residue; d: D form. The star is where a group is joined. ξ: configuration not given here. Cbz = O=C(OCc1ccccc1)*; ξK = NCCCCC(N)C(=O)O

- compound: "COC(=O)NC(Nc1ccc(Cl)cc1Cl)(C(F)(F)F)C(F)(F)F"
  subject-of-test: "NCI-H522 lung"
  TGI: "> 100 µM"
- compound: "O=c1nc(Oc2c(F)c(F)c(F)c(F)c2F)ccn1C1OC(CO)C(O)C1O (configuration not stated)"
  subject-of-test: "NCI-H522 lung"
  TGI: "> 100 µM"
- compound: "C=C(C)[C@@H]1CC[C@]2(COC(C)=O)CC[C@]3(C)[C@H](CC[C@@H]4[C@@]5(C)CC[C@H](OC(C)=O)C(C)(C)[C@@H]5CC[C@]43C)[C@@H]12"
  subject-of-test: "NCI-H522 lung"
  TGI: "> 50 µM"
- compound: "COC(=O)CNC(=O)c1cc(C)cc2c1Oc1c(cc(C)cc1C(=O)NCC(=O)OC)S2"
  subject-of-test: "NCI-H522 lung"
  TGI: "> 100 µM"
- compound: "O=C1OCC2=C1C(c1cccc(F)c1)c1cc3c(cc1N2CCO)CCC3 (configuration not stated)"
  subject-of-test: "NCI-H522 lung"
  TGI: "0.704 µM"
- compound: "Cc1ccc2nc(C=Nc3ccccc3Cl)cc(C)c2c1"
  subject-of-test: "NCI-H522 lung"
  TGI: "47.2 µM"
- compound: "COc1ccccc1N=Nc1c(-c2ccccc2)nn(C(=O)CC(=O)Nc2ccccc2Cl)c1-c1ccccc1"
  subject-of-test: "NCI-H522 lung"
  TGI: "> 100 µM"
- compound: "O=c1c2ccccc2nc(/C=C(\\O)c2ccccc2)n1-c1ccccc1Cl"
  subject-of-test: "NCI-H522 lung"
  TGI: "> 100 µM"
- compound: "COc1ccc(Nc2nc3cc(C(F)(F)F)ccc3nc2C(=O)O)cc1OC"
  subject-of-test: "NCI-H522 lung"
  TGI: "> 100 µM"
- compound: "CN(O)C(=O)c1ccccc1"
  subject-of-test: "NCI-H522 lung"
  TGI: "> 100 µM"
- compound: "C=CCN(C(=O)OC(C)(C)C)C1=CC2C(C)=CN(S(=O)(=O)c3ccccc3)C2C(OCc2ccccc2)=C1 (configuration not stated)"
  subject-of-test: "NCI-H522 lung"
  TGI: "> 100 µM"
- compound: "Nc1nc(N)nc(-c2ccccc2NS(=O)(=O)c2ccc([N+](=O)[O-])cc2)n1"
  subject-of-test: "NCI-H522 lung"
  TGI: "> 100 µM"
- compound: "O=c1c(O)c(O)c1=O.[NH2-].[NH2-].[NH2-].[NH2-].[NH2-].[Ru+5]"
  subject-of-test: "NCI-H522 lung"
  TGI: "> 100 µM"
- compound: "COc1ccc2c(c1OC)CN1CCc3cc4c(cc3C1C2)OCO4 (configuration not stated)"
  subject-of-test: "NCI-H522 lung"
  TGI: "> 100 µM"
- compound: "CC(C)(Cl)C(Cl)CC/C(CBr)=C(\\Cl)CCl (configuration not stated)"
  subject-of-test: "NCI-H522 lung"
  TGI: "1.88 µM"
- compound: "O=C(CC(=O)Nc1ccccc1Cl)NNC(c1cc(N=Nc2ccc(Br)cc2)ccc1O)P(O)O (configuration not stated)"
  subject-of-test: "NCI-H522 lung"
  TGI: "> 10 µM"
- compound: "CN1C(NN)=NS(=O)(=O)c2ccccc21"
  subject-of-test: "NCI-H522 lung"
  TGI: "> 100 µM"
- compound: "NC(=O)NN=C1C[C@H]2CCCC[C@H]2C1"
  subject-of-test: "NCI-H522 lung"
  TGI: "> 100 µM"
- compound: "COc1cc(OC)cc(Oc2nc3cc(N)cc(N)c3nc2-c2ccccc2)c1"
  subject-of-test: "NCI-H522 lung"
  TGI: "4.31 µM"
- compound: "Cc1cccc(NC(=O)c2sc3nc4c(cc3c2N)CCCC4)c1"
  subject-of-test: "NCI-H522 lung"
  TGI: "> 100 µM"
- compound: "COc1ccc(C2=C(c3cn(C)c4ccccc34)C(=O)NC2=O)cc1"
  subject-of-test: "NCI-H522 lung"
  TGI: "> 25 µM"
- compound: "C[C@]12CC(c3ccccc3O1)C(C(N)=O)C(=O)N2 (some centres not stated)"
  subject-of-test: "NCI-H522 lung"
  TGI: "> 100 µM"
- compound: "O=C1/C(=C/c2cccc(O)c2)COc2ccccc21"
  subject-of-test: "NCI-H522 lung"
  TGI: "5.82 µM"
- compound: "COc1ccc(C2=NN(C(=O)c3ccc(Cl)cc3)C(O)(c3cc(F)c(Cl)cc3Cl)C2)cc1OC (configuration not stated)"
  subject-of-test: "NCI-H522 lung"
  TGI: "> 100 µM"
- compound: "CCCCCC(/C=N/Nc1ccccc1)C(O)(C(F)(F)F)C(F)(F)F (configuration not stated)"
  subject-of-test: "NCI-H522 lung"
  TGI: "> 100 µM"
- compound: "CC(=O)OC1C[C@@H](C)C2(C[C@H](O)c3ccoc3)C(=O)OC[C@]13C2CCC(O)C31CO1 (some centres not stated)"
  subject-of-test: "NCI-H522 lung"
  TGI: "> 100 µM"
- compound: "Cc1cc2c(cc1C)N1C(Cl)=C3CCCCC3=C(C#N)C1N2 (configuration not stated)"
  subject-of-test: "NCI-H522 lung"
  TGI: "3.91 µM"
- compound: "COc1nc(-c2cn(S(=O)(=O)c3ccc(C)cc3)c3ccc(Br)cc23)cc(C(F)(F)F)c1C#N"
  subject-of-test: "NCI-H522 lung"
  TGI: "> 100 µM"
- compound: "NCCCCC(NC(=O)OCc1ccccc1)C(=O)NCC(N)=O (configuration not stated) (Cbz-[ξK]-Gly-NH2)"
  subject-of-test: "NCI-H522 lung"
  TGI: "> 100 µM"
- compound: "Cc1ncc(CCl)c2c1OC(C)(C)OC2"
  subject-of-test: "NCI-H522 lung"
  TGI: "32.6 µM"
- compound: "S=C(Nc1c2c(nc3ccccc13)CCCC2)Nc1c2c(nc3ccccc13)CCCC2"
  subject-of-test: "NCI-H522 lung"
  TGI: "> 100 µM"
- compound: "CCN(CC)CCCNc1nc2ccccc2[n+]([O-])n1"
  subject-of-test: "NCI-H522 lung"
  TGI: "> 100 µM"
- compound: "O=c1oc2ccccc2c(O)c1/C=N/C(=S)Nc1ccccc1"
  subject-of-test: "NCI-H522 lung"
  TGI: "> 100 µM"
- compound: "COc1cc(/C=N/NC(=O)c2ccc(NC(C)=O)cc2OC)ccc1O"
  subject-of-test: "NCI-H522 lung"
  TGI: "> 100 µM"
- compound: "CCCCCCCCCCCCCCCCP(=O)(OC)OC"
  subject-of-test: "NCI-H522 lung"
  TGI: "26.8 µM"
- compound: "O=C1NC(=O)C(C(=O)C(=O)Nc2cccc(C(F)(F)F)c2)C(=O)N1"
  subject-of-test: "NCI-H522 lung"
  TGI: "> 100 µM"
- compound: "CCOC1CN(C)C(=Nc2cccc3ccccc23)S1 (configuration not stated)"
  subject-of-test: "NCI-H522 lung"
  TGI: "> 10 µM"
- compound: "O=C(OC(CNc1c(C(=O)c2ccccc2)c(=O)n(Cc2ccccc2)c(=O)n1Cc1ccccc1)CN1CCOCC1)c1ccccc1 (configuration not stated)"
  subject-of-test: "NCI-H522 lung"
  TGI: "> 100 µM"
- compound: "C=C(C)/C=C/C(O)[C@](C)(O)[C@H]1[C@H](O)C[C@@]2(C)[C@@H]3CCc4c(cc(OC5OC(CO)C(O)C(O)C5O)c(O)c4C)C3(C)C(=O)C[C@]12C (some centres not stated)"
  subject-of-test: "NCI-H522 lung"
  TGI: "> 100 µM"
- compound: "O=C(Nc1ccn(C2CC(O)C(CO)O2)c(=O)n1)c1ccccc1 (configuration not stated)"
  subject-of-test: "NCI-H522 lung"
  TGI: "> 100 µM"
- compound: "CCOC(=O)C=C1CCC2(CC1)OCCO2"
  subject-of-test: "NCI-H522 lung"
  TGI: "> 100 µM"
- compound: "CON(C)C(=O)CCCO"
  subject-of-test: "NCI-H522 lung"
  TGI: "> 100 µM"

---

# System: ACHN renal
# test-description: NCI tumour cell line growth inhibition, 48 h
// Condition not met strictly below 30 µM in TGI; Condition met otherwise

- molecule: "Cc1ccc(O)c(N=Nc2c(O)cc(S(=O)(=O)O)c3ccccc23)c1"
  class-name: "Condition met"
- molecule: "Nc1ccc2c(c1)Cc1cc(Cl)c(Cl)cc1-2"
  class-name: "Condition met"
- molecule: "O=C1/C(=C/c2cccc(O)c2)COc2ccccc21"
  class-name: "Condition not met"
- molecule: "Cn1nc(-c2cccs2)cc1/N=C(\\N)C(C)(C#N)Cc1ccccc1 (stereo unspecified)"
  class-name: "Condition met"
- molecule: "O=P(O)(OP(=O)(O)c1ccccc1)c1ccccc1 (tested in a mixture with another compound)"
  class-name: "Condition met"
- molecule: "COc1cc(OC)cc(Oc2nc3cc(N)cc(N)c3nc2-c2ccccc2)c1"
  class-name: "Condition not met"
- molecule: "COC(=O)C1=C(C)NC(C)=C(C(=O)OC)C1c1ccc(NO)cc1"
  class-name: "Condition not met"
- molecule: "CCCCCCCCCCCCC[N+](C)(C)Cc1ccccc1"
  class-name: "Condition not met"
- molecule: "NC(CSC(=O)c1ccccc1)C(=O)O (stereo unspecified)"
  class-name: "Condition met"

Provenance of the data: PubChem BioAssay (NCI)
